Value source: patent US20200385482A1

target: T1, human PD-L1 (hPD-L1) expressed on transfected 300.19 cells (human, UniProt Q9NZQ7 19-290); test: FACS, hPD-L1 300.19 cells, assay 2, Ab 0.01 ug/ml
T1 construct: whole, on cells; also called B7H1
T1 sequence (Q9NZQ7 19-290): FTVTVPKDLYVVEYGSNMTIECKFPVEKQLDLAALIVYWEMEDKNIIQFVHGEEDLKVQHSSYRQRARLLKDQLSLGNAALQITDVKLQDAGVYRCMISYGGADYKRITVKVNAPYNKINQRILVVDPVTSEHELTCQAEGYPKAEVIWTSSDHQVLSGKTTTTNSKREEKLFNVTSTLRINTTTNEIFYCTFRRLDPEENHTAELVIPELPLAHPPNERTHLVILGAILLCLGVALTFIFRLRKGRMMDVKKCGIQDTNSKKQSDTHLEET
parameter: Cells PE-A Mean (MFI)
// return numeric value only (unit: MFI, not printed)

Cells PE-A Mean for Ab-30 (antibody, V domains shown, also called huPD-L1 Ab # 30) VH: QVQLVQSGGSVVRPGESLRLSCVASGFIFDNYDMSWVRQVPGKGLEWVSRVNWNGGSTTYADAVKGRFTISRDNTKNSLYLQMNNLRAEDTAVYYCVREFVGAYDLWGQGTTVTVSS VL: QSALTQPASVSGSPGQSITISCTGTSSDVGGYNYVSWYQQHPGKAPKLMIYDVSNRPSGVSNRFSGSKSGNTASLTISGLQAEDEADYYCSSYTSSTLPFGGGTKLTVL ? 7720

Cells PE-A Mean for Ab-14 (antibody, V domains shown, also called huPD-L1 Ab # 14) VH: QVQLVQSGAEVKKPGASVKVSCKASGYTFTSYGISWVRQAPGQGLEWMGWISAYNGNTNYAQKLQGRVTMTTDTSTSTAYMELRSLRSDDTAVYYCARALPSGTILVGGWFDPWGQGTLVTVSS VL: NFMLTQPHSVSESPGKTVTISCTRSSGNIASNYVQWYQQRPGSAPTTVIYEDNQRPSGVPDRFSGSIDSSSNSASLTISGLKTEDEADYYCQSYDSSNLWVFGGGTKLTVL ? 3700

Cells PE-A Mean for Ab-55 (antibody, V domains shown, also called huPD-L1 Ab # 55) VH: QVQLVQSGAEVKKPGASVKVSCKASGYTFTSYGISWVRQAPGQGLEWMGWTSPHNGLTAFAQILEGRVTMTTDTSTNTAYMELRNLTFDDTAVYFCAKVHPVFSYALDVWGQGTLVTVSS VL: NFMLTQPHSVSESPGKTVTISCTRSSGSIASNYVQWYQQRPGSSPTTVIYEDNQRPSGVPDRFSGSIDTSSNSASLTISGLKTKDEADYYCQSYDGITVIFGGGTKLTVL ? 1760

More entries:
Cells PE-A Mean for Ab-42 (antibody, V domains shown, also called huPD-L1 Ab # 42; mAb42) VH: QVQLVQSGAEVKKPGSSVKVSCKASGGTFSSYAISWVRQAPGQGLEWMGGIIPIFGTANYAQKFQGRVTITADKSTSTAYMELSSLRSEDTAVYYCARGRQMFGAGIDFWGPGTLVTVSS VL: NFMLTQPHSVSESPGKTVTISCTRSSGSIDSNYVQWYQQRPGSAPTTVIYEDNQRPSGVPDRFSGSIDSSSNSASLTISGLKTEDEADYYCQSYDSNNRHVIFGGGTKLTVL ? 11600
